- System: NL4-3 strain of HIV-1
- test protocol: HIV-1 replication inhibition: cyto-protection of MT4 cells infected with NL4-3 virus (CellTiter-Glo viability assay)
- Format: cell-based
- details: Human immunodeficiency virus 1, NL43, 120 h, concentration leading to 50% of cyto-protection, 5 days incubation
measurement label: log10(EC50) (log10 of the value in nM)

| compound | log10(EC50) |
| --- | --- |
| Cc1sc(-c2cccs2)c(-c2ccc3c(c2)CCCO3)c1C(OC(C)(C)C)C(=O)O (centres unmarked) [Example 23] | 2.23 |
| Cc1sc(-c2ccncc2)c(-c2cc(F)c3c(c2C)CCCO3)c1C(OC(C)(C)C)C(=O)O (centres unmarked) [Example 39] | 2.86 |
| Cc1sc(-c2cc(C(F)(F)F)nn2C)c(-c2ccc3c(c2)CCCO3)c1C(OC(C)(C)C)C(=O)O (centres unmarked) [Example 83] | 3.23 |
| Cc1sc(-c2ccsn2)c(-c2ccc3c(c2)CCCO3)c1C(OC(C)(C)C)C(=O)O (centres unmarked) [Example 86] | 2.43 |
| Cc1sc(-c2cccc(C(N)=O)c2)c(C2=CCC(C)(C)CC2)c1C(OC(C)(C)C)C(=O)O (centres unmarked) [Example 31] | 1.60 |
| Cc1sc(-c2cnn(Cc3ccccc3)c2)c(-c2ccc3c(c2)CCCO3)c1C(OC(C)(C)C)C(=O)O (centres unmarked) [Example 80] | 3.79 |
| Cc1sc(-c2ccccc2)c(-c2ccc3c4c(ccnc24)CCO3)c1C(OC(C)(C)C)C(=O)O (centres unmarked) [Example 61] | 2.32 |
| Cc1sc(-c2cscn2)c(C2=CCC(C)(C)CC2)c1C(OC(C)(C)C)C(=O)O (centres unmarked) [Example 54] | 2.67 |

###

- Tested on: NL4-3 strain of HIV-1
- test protocol: HIV-1 replication inhibition: cyto-protection of MT4 cells infected with NL4-3 virus (CellTiter-Glo viability assay)
- Assay type: cell-based
- details: Human immunodeficiency virus 1, NL43, 120 h, concentration leading to 50% of cyto-protection, 5 days incubation
Some molecules, each annotated with its measured EC50.

| molecule | EC50, nM |
| --- | --- |
| Cc1sc(-c2ccc(C(N)=O)cc2)c(C2=CCC(C)(C)CC2)c1C(OC(C)(C)C)C(=O)O (stereo not shown) [Example 27] | 90 |
| Cc1sc(-c2ccsn2)c(C2=CCC(C)(C)CC2)c1C(OC(C)(C)C)C(=O)O (stereo not shown) [Example 58] | 110 |
| COC1(C)CC=C(c2c(-c3cnc4c(c3)CCCO4)sc(C)c2C(OC(C)(C)C)C(=O)O)CC1 (stereo not shown) [Example 82] | 1000 |
| Cc1sc(N2CCCC2=O)c(C2=CCC(C)(C)CC2)c1C(OC(C)(C)C)C(=O)O (stereo not shown) [Example 68] | 1900 |
| Cc1sc(-c2ccc(=O)n(Cc3ccccc3)c2)c(C2=CCC(C)(C)CC2)c1C(OC(C)(C)C)C(=O)O (stereo not shown) [Example 34] | 750 |
| Cc1sc(-c2ccnc(F)c2)c(-c2ccc3c(c2)CCCO3)c1C(OC(C)(C)C)C(=O)O (stereo not shown) [Example 13] | 150 |
| Cc1sc(-c2ccncc2)c(C2=CCC(C)(C)CC2)c1[C@H](OC(C)(C)C)C(=O)O [Example 11] | 32 |
| Cc1cc(-c2sc(C)c(C(OC(C)(C)C)C(=O)O)c2-c2ccc3c(c2)CCCO3)ccn1 (stereo not shown) [Example 14] | 480 |
| Cc1sc(-c2ccns2)c(C2=CCC(C)(C)CC2)c1C(OC(C)(C)C)C(=O)O (stereo not shown) [Example 63] | 950 |
| Cc1sc(C2=CCOCC2)c(-c2ccc3c(c2)CCCO3)c1C(OC(C)(C)C)C(=O)O (stereo not shown) [Example 78] | 4300 |
| Cc1sc(-c2ccncc2)c(C2=CCC(C)(CF)CC2)c1C(OC(C)(C)C)C(=O)O (stereo not shown) [Example 53] | 70 |
| Cc1sc(-c2cc(F)c3c(c2)CCCO3)c(-c2cc(F)c3c(c2)CCCO3)c1C(OC(C)(C)C)C(=O)O (stereo not shown) [Example 75] | 2400 |
| CCOC(C(=O)O)c1c(C)sc(-c2ccncc2)c1C1=CCC(C)(C)CC1 (stereo not shown) [Example 64] | 710 |
| Cc1ccc(-c2sc(C)c(C(OC(C)(C)C)C(=O)O)c2C2=CCC(C)(C)CC2)nc1 (stereo not shown) [Example 46] | 450 |
| CCCNC(=O)c1ccc(-c2sc(C)c(C(OC(C)(C)C)C(=O)O)c2C2=CCC(C)(C)CC2)cc1 (stereo not shown) [Example 36] | 100 |
| CNC(=O)c1cccc(-c2sc(C)c(C(OC(C)(C)C)C(=O)O)c2C2=CCC(C)(C)CC2)c1 (stereo not shown) [Example 41] | 50 |

###

- Tested on: NL4-3 strain of HIV-1
- test protocol: HIV-1 replication inhibition: cyto-protection of MT4 cells infected with NL4-3 virus (CellTiter-Glo viability assay)
- Type: cell-based
- details: Human immunodeficiency virus 1, NL43, 120 h, concentration leading to 50% of cyto-protection, 5 days incubation
measurement label: EC50 (nM)

| molecule | measurement label | unit symbol | meas value |
| --- | --- | --- | --- |
| Cc1sc(-c2ccsc2)c(-c2ccc3c(c2)CCCO3)c1C(OC(C)(C)C)C(=O)O (stereo not shown) | EC50 | nM | 220 |
| Cc1sc(-c2ccc(F)cc2)c(-c2ccc3c(c2)CCCO3)c1C(OC(C)(C)C)C(=O)O (stereo not shown) | EC50 | nM | 190 |
| CC(C)(C)OC(C(=O)O)c1c(CO)sc(-c2ccncc2)c1-c1ccc2c(c1)CCCO2 (stereo not shown) | EC50 | nM | 2300 |
| CCCc1ccnc(-c2sc(C)c(C(OC(C)(C)C)C(=O)O)c2C2=CCC(C)(C)CC2)c1 (stereo not shown) | EC50 | nM | 1100 |
| Cc1sc(-c2ccnc3ccccc23)c(-c2ccc3c(c2)CCCO3)c1C(OC(C)(C)C)C(=O)O (stereo not shown) | EC50 | nM | 410 |
| Cc1sc(-c2ccc(=O)n(CC3CC3)c2)c(C2=CCC(C)(C)CC2)c1C(OC(C)(C)C)C(=O)O (stereo not shown) | EC50 | nM | 320 |
| Cc1sc(-c2ccccc2)c(C2=CCC(C)(C)CC2)c1C(OC(C)(C)C)C(=O)O (stereo not shown) | EC50 | nM | 230 |
| Cc1sc(-c2ccncc2)c(C2=CCC(F)(F)CC2)c1C(OC(C)(C)C)C(=O)O (stereo not shown) | EC50 | nM | 750 |
| COc1ccc(-c2sc(C)c(C(OC(C)(C)C)C(=O)O)c2-c2ccc3c(c2)CCCO3)cn1 (stereo not shown) | EC50 | nM | 1500 |
| Cc1sc(-c2ccc(S(N)(=O)=O)cc2)c(C2=CCC(C)(C)CC2)c1C(OC(C)(C)C)C(=O)O (stereo not shown) | EC50 | nM | 430 |
| Cc1sc(-c2ccc(C(N)=O)cc2)c(-c2ccc3c(c2)CCCO3)c1C(OC(C)(C)C)C(=O)O (stereo not shown) | EC50 | nM | 300 |
| Cc1sc(-c2ccccc2)c(C2=CCC(C)(C)c3cccnc32)c1C(OC(C)(C)C)C(=O)O (stereo not shown) | EC50 | nM | 2300 |
| Cc1sc(-c2ccc(=O)n(C)c2)c(-c2ccc3c(c2)CCCO3)c1C(OC(C)(C)C)C(=O)O (stereo not shown) | EC50 | nM | 430 |
| Cc1sc(-c2ccccc2C(N)=O)c(C2=CCC(C)(C)CC2)c1C(OC(C)(C)C)C(=O)O (stereo not shown) | EC50 | nM | 90 |
| Cc1sc(-c2cncnc2)c(-c2ccc3c(c2)CCCO3)c1C(OC(C)(C)C)C(=O)O (stereo not shown) | EC50 | nM | 260 |
| Cc1sc(-c2ncccn2)c(C2=CCC(C)(C)CC2)c1C(OC(C)(C)C)C(=O)O (stereo not shown) | EC50 | nM | 990 |

###

- System: NL4-3 strain of HIV-1
- test protocol: HIV-1 replication inhibition: cyto-protection of MT4 cells infected with NL4-3 virus (CellTiter-Glo viability assay)
- Assay type: cell-based
- details: Human immunodeficiency virus 1, NL43, 120 h, concentration leading to 50% of cyto-protection, 5 days incubation
pEC50: −log10 of the molar value.
Could you label it T if measured pEC50 is 6 or higher, and F otherwise?

| compound | cat |
| --- | --- |
| Cc1sc(-n2cccn2)c(-c2ccc3c(c2)CCCO3)c1C(OC(C)(C)C)C(=O)O (stereo not shown) | F |
| CCCc1cccc(-c2sc(C)c(C(OC(C)(C)C)C(=O)O)c2C2=CCC(C)(C)CC2)n1 (stereo not shown) | T |
| CNC(=O)c1ccc(-c2sc(C)c(C(OC(C)(C)C)C(=O)O)c2C2=CCC(C)(C)CC2)cc1 (stereo not shown) | T |
| CC(=O)Nc1ccc(-c2sc(C)c(C(OC(C)(C)C)C(=O)O)c2C2=CCC(C)(C)CC2)cc1 (stereo not shown) | T |
| Cc1sc(-c2cnc3c(c2)CCCO3)c(C2=CCC(C)(C)CC2)c1C(OC(C)(C)C)C(=O)O (stereo not shown) | T |
| Cc1sc(-c2ccncc2)c(-c2ccc3c4c(ccnc24)CCO3)c1C(OC(C)(C)C)C(=O)O (stereo not shown) | F |
| Cc1sc(-c2ccncc2)c(C2=CCC(CF)(CF)CC2)c1C(OC(C)(C)C)C(=O)O (stereo not shown) | T |
| Cc1sc(-c2cnn(C)c2)c(C2=CCC(C)(C)CC2)c1C(OC(C)(C)C)C(=O)O (stereo not shown) | T |
| Cc1sc(-c2cccn2C)c(-c2ccc3c(c2)CCCO3)c1C(OC(C)(C)C)C(=O)O (stereo not shown) | F |
